- measurement_target: F508delCFTR in primary hBE cells with F508del/F508del CFTR mutation (Homo sapiens, UniProt P13569, DEL508-508)
- Construct: cells isolated from CF patients with the homozygous mutation; endogenous in cells; host or cells: primary human bronchial epithelial (hBE) cells from F508del/F508del CF patients
- Sequence (P13569 with tags, fused parts or gaps DEL508-508): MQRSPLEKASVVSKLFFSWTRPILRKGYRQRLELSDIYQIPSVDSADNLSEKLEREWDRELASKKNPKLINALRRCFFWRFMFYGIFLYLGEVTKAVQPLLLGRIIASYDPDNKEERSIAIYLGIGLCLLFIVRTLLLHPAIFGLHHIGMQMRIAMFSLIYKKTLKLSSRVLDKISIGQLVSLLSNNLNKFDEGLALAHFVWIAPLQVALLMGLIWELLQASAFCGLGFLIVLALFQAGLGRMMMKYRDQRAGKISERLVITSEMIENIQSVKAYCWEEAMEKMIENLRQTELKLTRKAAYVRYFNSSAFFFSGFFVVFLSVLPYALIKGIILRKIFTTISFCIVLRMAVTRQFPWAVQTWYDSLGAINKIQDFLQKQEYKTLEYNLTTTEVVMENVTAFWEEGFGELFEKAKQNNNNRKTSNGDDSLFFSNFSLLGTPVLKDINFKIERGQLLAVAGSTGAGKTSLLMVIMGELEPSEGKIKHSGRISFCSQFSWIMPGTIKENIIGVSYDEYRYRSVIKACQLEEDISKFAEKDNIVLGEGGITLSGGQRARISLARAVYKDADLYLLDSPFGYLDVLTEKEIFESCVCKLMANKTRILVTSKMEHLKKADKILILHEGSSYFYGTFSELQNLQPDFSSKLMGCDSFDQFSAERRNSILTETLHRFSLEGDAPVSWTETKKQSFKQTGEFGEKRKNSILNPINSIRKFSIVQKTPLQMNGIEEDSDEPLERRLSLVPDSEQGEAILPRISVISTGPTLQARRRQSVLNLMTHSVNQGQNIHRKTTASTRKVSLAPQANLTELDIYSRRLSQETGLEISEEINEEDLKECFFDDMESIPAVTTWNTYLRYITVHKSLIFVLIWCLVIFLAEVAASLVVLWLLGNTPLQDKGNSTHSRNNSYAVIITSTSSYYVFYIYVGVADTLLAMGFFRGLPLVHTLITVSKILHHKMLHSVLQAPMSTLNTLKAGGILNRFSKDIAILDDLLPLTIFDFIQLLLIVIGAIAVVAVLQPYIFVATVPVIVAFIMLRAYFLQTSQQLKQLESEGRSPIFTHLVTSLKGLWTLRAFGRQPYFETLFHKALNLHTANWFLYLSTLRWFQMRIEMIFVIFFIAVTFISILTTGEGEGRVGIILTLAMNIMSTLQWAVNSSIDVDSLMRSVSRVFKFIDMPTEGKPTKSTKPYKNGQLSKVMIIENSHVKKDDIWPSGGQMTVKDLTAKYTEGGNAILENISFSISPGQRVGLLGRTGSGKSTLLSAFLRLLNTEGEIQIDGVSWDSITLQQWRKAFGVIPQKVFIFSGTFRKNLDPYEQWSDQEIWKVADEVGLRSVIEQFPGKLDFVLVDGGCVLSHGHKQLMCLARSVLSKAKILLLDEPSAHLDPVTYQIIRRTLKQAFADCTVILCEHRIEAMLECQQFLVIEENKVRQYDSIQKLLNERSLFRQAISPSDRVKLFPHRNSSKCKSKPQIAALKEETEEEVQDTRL
- protocol_notes: Transepithelial Clamp Circuit on Human Bronchial Epithelial Cells Conductance Assay (hBE-TECC)
- Format: cell-based
- conditions_used: relative to positive control (3 μM) coupled with control potentiator
reported_endpoint: Maximum % activity (%)
Express it in %; write the number only.

>>> recorded_result("C[C@]1(C(=O)N[C@@H]2C[C@H]([C@H]3CC[C@@H](C(=O)O)CC3)Oc3cc(OC(F)(F)F)ccc32)COc2cc3c(cc21)OC(F)(F)O3")
86
>>> recorded_result("COc1ccc2c(c1)O[C@@H](c1ccc(=O)[nH]n1)C[C@H]2NC(=O)[C@@]1(C)COc2cc3c(cc21)OC(F)(F)O3")
105
>>> recorded_result("CC1(C)COC(C)(C)c2c1n(C[C@@H](O)CO)c1cc(F)c(NC(=O)[C@@]3(C)COc4cc5c(cc43)OC(F)(F)O5)cc21")
79
>>> recorded_result("C[C@]1(C(=O)N[C@@H]2C[C@H](c3ccc(C(=O)O)cn3)Oc3cc(OC(F)F)ccc32)COc2cc3c(cc21)OC(F)(F)O3")
93
>>> recorded_result("COc1ccc2c(c1)O[C@@H](c1ccc(N3C[C@@H](O)[C@H](O)C3)nn1)C[C@H]2NC(=O)[C@@]1(C)COc2cc3c(cc21)OC(F)(F)O3")
86

Lookup: Recall and state the measured Maximum % activity (%) for `COc1ccc2c(c1)O[C@@H](c1cnc(N3C[C@@H](O)[C@H](O)C3)cn1)C[C@H]2NC(=O)[C@@]1(C)COc2cc3c(cc21)OC(F)(F)O3` .
Found: 95
